Taken from PubChem BioAssay (NCATS).

# Protocol Text: Cellular Toxicity (caspase-3) N2a (AID 665);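 also: compound exposure lasted 16 h at 37 °C before readout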
# Assay Setup: N2a cells, luminescence, normalized: DMSO 0%, 10 µM staurosporine 100%; series mostly up to 92.2 µM
Activity calls are given as the source filed them. Calls follow the shape of the dose curve; as a rule, active = well fitted activation curve with a large enough effect; inconclusive = small, poorly fitted or top-dose-only effect; inactive = flat fitted curve, though single readings scatter.
Measured Endpoint: outcome

Examples with their reported outcome follow.
O=C(O)c1cc(=O)[nH]c(=O)[nH]1 ... inactive
CC(=O)Oc1ccccc1C(=O)Nc1ncc([N+](=O)[O-])s1 ... inactive
C[C@]12C=CC(=O)C=C1CC[C@@H]1[C@@H]2C(=O)C[C@@]2(C)[C@H]1CC[C@]2(O)C(=O)CO ... inactive
Cc1ncc([N+](=O)[O-])n1CCO ... inactive
Cc1nnc(NS(=O)(=O)c2ccc(N)cc2)s1 ... inactive
CC(=O)[C@H]1CC[C@H]2[C@@H]3CCC4=CC(=O)CC[C@]4(C)[C@H]3CC[C@]12C ... inactive
Cc1noc(NS(=O)(=O)c2ccc(N)cc2)c1C ... inactive
CCc1cc(C(N)=S)ccn1 ... inactive
Cc1ccnc2c1NC(=O)c1cccnc1N2C1CC1 ... inactive
O=C(N[C@H](CO)[C@H](O)c1ccc([N+](=O)[O-])cc1)C(Cl)Cl ... inactive

Now let's try a different one.
What does the record list as outcome for `CC1=NN(c2ccccc2)C(=O)C1` ?
inactive
